test-system: T1, DD(E) fragment of fibrin
T1 chain 1: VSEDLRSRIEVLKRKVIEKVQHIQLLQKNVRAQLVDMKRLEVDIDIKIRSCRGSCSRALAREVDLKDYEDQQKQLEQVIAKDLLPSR
T1 chain 2: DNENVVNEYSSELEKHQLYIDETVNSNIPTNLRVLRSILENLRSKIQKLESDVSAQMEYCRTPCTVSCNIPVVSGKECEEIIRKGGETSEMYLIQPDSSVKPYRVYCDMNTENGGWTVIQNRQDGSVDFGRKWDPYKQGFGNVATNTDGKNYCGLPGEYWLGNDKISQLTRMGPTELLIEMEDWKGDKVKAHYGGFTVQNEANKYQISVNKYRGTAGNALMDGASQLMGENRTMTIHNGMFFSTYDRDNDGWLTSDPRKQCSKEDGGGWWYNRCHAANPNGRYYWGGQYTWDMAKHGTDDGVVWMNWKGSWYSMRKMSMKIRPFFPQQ
T1 chain 3: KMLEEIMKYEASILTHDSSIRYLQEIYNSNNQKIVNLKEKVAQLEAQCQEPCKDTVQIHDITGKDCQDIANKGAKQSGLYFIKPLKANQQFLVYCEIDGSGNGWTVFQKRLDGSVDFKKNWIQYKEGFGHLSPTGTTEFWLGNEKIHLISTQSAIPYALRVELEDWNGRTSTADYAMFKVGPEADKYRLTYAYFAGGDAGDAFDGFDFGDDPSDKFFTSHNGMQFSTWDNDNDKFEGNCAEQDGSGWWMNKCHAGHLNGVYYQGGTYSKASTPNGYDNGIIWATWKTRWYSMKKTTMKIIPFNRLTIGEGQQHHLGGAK
T1 chain 4: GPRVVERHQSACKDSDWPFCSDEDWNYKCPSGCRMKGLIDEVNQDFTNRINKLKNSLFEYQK
T1 chain 5: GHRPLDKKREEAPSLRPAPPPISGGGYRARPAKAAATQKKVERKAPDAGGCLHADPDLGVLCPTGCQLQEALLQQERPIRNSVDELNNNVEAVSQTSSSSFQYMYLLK
T1 chain 6: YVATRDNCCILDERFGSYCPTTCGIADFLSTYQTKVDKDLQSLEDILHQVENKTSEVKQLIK
protocol-notes: affinity of optical contrast agent to fibrin DD(E) fragment
pKd: −log10 of the molar value. Positions of bridges follow the written chain, without caps; N, C: chain ends. Non-standard residues stand in square brackets, D forms with d. No end group written: not given here. Tyr(3-I) = N[C@@H](Cc1ccc(O)c(I)c1)C(=O)O; Hyp = O=C(O)[C@@H]1C[C@@H](O)CN1; Ahx = NCCCCCC(=O)O

binder	pKd
fluorescein-[Ahx]WFHC[Hyp][Tyr(3-I)]DLCHI (disulfide 5-10 (inferred)) [Structure D: Fluor-Ahx-W-F-H-C-Hyp-Y(3-I)-D-L-C-H-I]	7.21
fluorescein-KWFHC[Hyp][Tyr(3-I)]DLCHI (disulfide 5-10 (inferred)) [Structure H: Fluor-K-W-F-H-C-Hyp-Y(3-I)-D-L-C-H-I]	6.92
fluorescein-KFHC[Hyp][Tyr(3-I)]DLCHI (disulfide 4-9 (inferred)) [Structure F: Fluor-K-F-H-C-Hyp-Y(3-I)-D-L-C-H-I]	6.67
